experiment: Solubility Test I (stepwise solvent addition); format: physicochemical; conditions: organic solvent or mixture, thermodynamic from solid; solvent DMSO; room temperature
READOUT LABEL: solubility

If you can, please state the reported solubility value of CCOc1cc(-c2ccc(N3CC4CC(C3)N4Cc3ccc(OC)nc3)nc2)c2c3cn[nH]c3nn2c1 (single isomer, unassigned) [Crystal form A] .
21 to 42 mg/mL

* * *

assay: Solubility Test I (stepwise solvent addition); type: physicochemical; conditions: organic solvent or mixture, thermodynamic from solid; solvent IPA; room temperature; undissolved sample completely dissolved at 50° C. ~1 h
READOUT LABEL: solubility

If you can, please state the reported solubility value of CCOc1cc(-c2ccc(N3CC4CC(C3)N4Cc3ccc(OC)nc3)nc2)c2c3cn[nH]c3nn2c1 (single isomer, unassigned) [Crystal form A] .
< 2 mg/mL

* * *

assay: Solubility Test I (stepwise solvent addition); format: physicochemical; conditions: organic solvent or mixture, thermodynamic from solid; solvent n-Heptane; room temperature
READOUT LABEL: solubility

If you can, please state the reported solubility value of CCOc1cc(-c2ccc(N3CC4CC(C3)N4Cc3ccc(OC)nc3)nc2)c2c3cn[nH]c3nn2c1 (single isomer, unassigned) [Crystal form A] .
< 2000 µg/mL

* * *

assay: Solubility Test I (stepwise solvent addition); type: physicochemical; conditions: water, thermodynamic from solid; solvent H2O; room temperature
READOUT LABEL: solubility

If you can, please state the reported solubility value of CCOc1cc(-c2ccc(N3CC4CC(C3)N4Cc3ccc(OC)nc3)nc2)c2c3cn[nH]c3nn2c1 (single isomer, unassigned) [Crystal form A] .
< 2300 µg/mL

* * *

assay: Pharmacokinetic experiment in SD rats; type: in vivo; conditions: SD, rat, plasma, po, 10 mg/kg, oral intragastric 10 mg/kg, 1 mg/mL in 5% DMSO in normal saline, compound I in plasma, 0.25-24 h, read-out: AUC(0-t)
READOUT LABEL: AUC(0-t) (ng·h/mL)
Numbers only, in ng·h/mL.

If you can, please state the reported AUC(0-t) value of CCOc1cc(-c2ccc(N3CC4CC(C3)N4Cc3ccc(OC)nc3)nc2)c2c3cn[nH]c3nn2c1 (single isomer, unassigned) [Crystal form A] .
19100

* * *

test: Solubility Test I (stepwise solvent addition); assay type: physicochemical; conditions: organic solvent or mixture, thermodynamic from solid; solvent THE; room temperature
READOUT LABEL: solubility

If you can, please state the reported solubility value of CCOc1cc(-c2ccc(N3CC4CC(C3)N4Cc3ccc(OC)nc3)nc2)c2c3cn[nH]c3nn2c1 (single isomer, unassigned) [Crystal form A] .
1900 to 6300 µg/mL

* * *

experiment: Solubility Test II (saturated solubility by HPLC); assay type: physicochemical; conditions: pH 6.8 phosphate buffer, 37 °C, pH 6.8, aqueous buffer, thermodynamic from solid
READOUT LABEL: solubility at 24 h (µg/mL)
One number for each entry, in µg/mL.

If you can, please state the reported solubility at 24 h value of CCOc1cc(-c2ccc(N3CC4CC(C3)N4Cc3ccc(OC)nc3)nc2)c2c3cn[nH]c3nn2c1 (single isomer, unassigned) [Crystal form A] .
0.04

* * *

Assay: Solubility Test I (stepwise solvent addition)
Assay type: physicochemical
Conditions: organic solvent or mixture, thermodynamic from solid; solvent MIBK; room temperature
Description: About 2 mg of the crystal form A sample prepared according to Example 2 was weighed out and added to an HPLC vial, and the corresponding solvent was added stepwise (50/50/200/700 μL in sequence), followed by oscillation until the solid was completely dissolved. […] The solubility range was calculated based on the mass of the solid sample, the volume of the solvent added, and the observed dissolution results, and the results are summarized in Table 3-1.
READOUT LABEL: solubility

If you can, please state the reported solubility value of CCOc1cc(-c2ccc(N3CC4CC(C3)N4Cc3ccc(OC)nc3)nc2)c2c3cn[nH]c3nn2c1 (single isomer, unassigned) [Crystal form A] .
< 2200 µg/mL

* * *

experiment: Solubility Test I (stepwise solvent addition); assay type: physicochemical; conditions: organic solvent or mixture, thermodynamic from solid; solvent 1,4-Dioxane; room temperature
READOUT LABEL: solubility

If you can, please state the reported solubility value of CCOc1cc(-c2ccc(N3CC4CC(C3)N4Cc3ccc(OC)nc3)nc2)c2c3cn[nH]c3nn2c1 (single isomer, unassigned) [Crystal form A] .
2000 to 6700 µg/mL
